In this section we review reported remaining at 2 h, 50 μM values for a set of molecules.
- SYSTEM: UniProt P08473
- Sequence (P08473 whole entry): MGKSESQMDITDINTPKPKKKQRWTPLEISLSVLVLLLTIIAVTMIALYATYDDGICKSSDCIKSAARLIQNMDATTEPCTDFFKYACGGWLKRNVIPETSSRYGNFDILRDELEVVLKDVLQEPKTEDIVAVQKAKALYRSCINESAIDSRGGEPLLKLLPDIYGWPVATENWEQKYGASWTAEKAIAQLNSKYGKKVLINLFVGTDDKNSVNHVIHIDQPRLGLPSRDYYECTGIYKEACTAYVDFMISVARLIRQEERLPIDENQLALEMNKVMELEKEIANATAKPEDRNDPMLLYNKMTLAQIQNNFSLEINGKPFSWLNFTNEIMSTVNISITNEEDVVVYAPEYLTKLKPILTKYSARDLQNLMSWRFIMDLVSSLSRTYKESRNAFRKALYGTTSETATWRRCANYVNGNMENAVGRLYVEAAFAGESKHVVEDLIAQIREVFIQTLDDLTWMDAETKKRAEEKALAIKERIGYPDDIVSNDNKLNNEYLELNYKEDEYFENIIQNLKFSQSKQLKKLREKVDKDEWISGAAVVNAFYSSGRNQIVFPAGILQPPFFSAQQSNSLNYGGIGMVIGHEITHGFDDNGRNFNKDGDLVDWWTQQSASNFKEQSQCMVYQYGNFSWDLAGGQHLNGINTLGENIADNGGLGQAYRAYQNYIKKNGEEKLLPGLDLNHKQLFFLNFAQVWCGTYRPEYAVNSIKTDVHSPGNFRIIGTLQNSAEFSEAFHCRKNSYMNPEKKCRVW
- PROTOCOL_DESCRIPTION: Metabolism by human neutral endopeptidase (hNEP) solution at 37° C.
- Format: in vitro ADME
- MEASUREMENT_PARAMETERS: substrate concentration 50 μM, 2 hours, read-out: percent remaining after 2-hour exposure to hNEP
- Protocol: . Pharmacol. 191:341-366 (2009)). A comparison was made between the sensitivity of the construct of formula IV and ANP to metabolism by human NEP (hNEP) (substrate concentration 50 μM). […] Results are shown in FIG. 1; results in FIG. 1 are expressed as the percent of the starting material, and are either the mean of 1-5 experiments or, where error bars are shown, are the mean±standard deviation.
Positions of bridges follow the written chain, without caps; N, C: chain ends. Non-standard residues stand in square brackets, D forms with d. Residues, ends and D or L forms follow the SMILES beside them. *: point of attachment. X1 = N=C(N)NCCC[C@H]1C(=O)N[C@@H](C(N)=O)CN1*; dNle = CCCC[C@@H](N)C(=O)O; Heptanoyl = CCCCCCC(=O)*
The figure you give is taken to be in %; do not add the unit.

[[record]]
molecule = "CCCCCCC(=O)N[C@H]1CSSC[C@@H](C(=O)N[C@@H](Cc2ccc(O)cc2)C(=O)N2C[C@H](C(N)=O)NC(=O)[C@@H]2CCCNC(=N)N)NC(=O)[C@H](CO)NC(=O)[C@H]([C@@H](C)CC)NC(=O)[C@H](CCCNC(=N)N)NC(=O)[C@H](CC(=O)O)NC(=O)[C@@H](CCCC)NC(=O)[C@H](CCCNC(=N)N)NC(=O)CNC(=O)[C@@H](C)NC(=O)[C@H](Cc2ccccc2)NC(=O)[C@H](Cc2c[nH]cn2)NC1=O [construct of formula IV] (Heptanoyl-CHF[dA]GR[dNle]DRISCY-X1; disulfide 1-12)"
value = 92


Let us move to another entry and its remaining at 2 h, 50 μM.
Report measured remaining at 2 h, 50 μM; entry is "CC[C@H](C)[C@@H]1NC(=O)[C@H](CCCNC(=N)N)NC(=O)[C@H](CC(=O)O)NC(=O)[C@H](CC(C)C)NC(=O)[C@H](CCCCN)NC(=O)[C@H](CC(C)C)NC(=O)CNC(=O)[C@H](Cc2ccccc2)NC(=O)[C@@H](NC(=O)CNC(=O)[C@H](CCCCN)NC(=O)[C@H](CO)NC(=O)[C@H](CC(C)C)NC(=O)CN)CSSC[C@@H](C(=O)O)NC(=O)CNC(=O)[C@H](CC(C)C)NC(=O)CNC(=O)[C@H](CO)NC(=O)[C@H](CCSC)NC(=O)[C@H](CO)NC(=O)CNC1=O"
1

Attribution: patent US8828926B2
